Tested on: NIH-3T3
assay: Cell uptake assay, NIH-3T3 cells
Assay type: cell-based, mouse
run.conditions: 100 uM, 4 hours
Records here are stratified by Cell uptake, Mean, NIH-3T3; strata: lower segment: < 60 ng/10^6 cell; middle segment: ≥ 60 ng/10^6 cell and < 200 ng/10^6 cell; upper segment: ≥ 200 ng/10^6 cell

Example entries and their recorded answers appear below.
N[C@@H](Cc1cccc(CCB(O)O)c1)C(=O)O    middle segment
N[C@@H](Cc1ccc(F)c(OCB(O)O)c1)C(=O)O    middle segment
N[C@@H](Cc1ccc(C2(B(O)O)CC2)cc1)C(=O)O    middle segment
N[C@@H](Cc1ccc(OCCB(O)O)cc1F)C(=O)O    lower segment
NC(Cc1ccc(CCB(O)O)cc1F)C(=O)O (single isomer, unassigned) [compound 9]    lower segment

Lab note: next compound to report on.
Q: Hi there! Could you help me figure out the category for NC(Cc1ccc(CCB(O)O)cc1F)C(=O)O (single isomer, unassigned) [compound 8] please?
A: lower segment
